From: patent US7741493B2

Subject Of Test: P2X7 (Homo sapiens, UniProt Q99572)
Test Protocol: YO-PRO-1 dye uptake assay in U373 cells stably expressing P2X7
Format: cell-based
Parameters: The complete open reading frame of human P2X7 was amplified from Incyte clone 148057; expressed in transfected cells
Study Conditions: dye uptake through P2X7, U373 cells, 300 μM BzATP, 5 μM YO-PRO-1, test compounds 30 nM to 3 μM; read-out: IC50
Where a name gives a salt, the structure may show the parent alone.
Can you tell me log10 of IC50 for the items I'm about to list?
// do not treat as linear: log10 of IC50, unit nM

QUERY: Find the recorded log10 of IC50 belonging to C[C@@]1(c2ccccc2)N=C(COc2ccccc2Cl)N[C@@H]1c1ccccc1 (relative stereo) [hydrochloride] and report it.
RESULT: 2.87

QUERY: Consider next the compound Clc1cccc(CC2=N[C@@H](c3ccccc3)[C@@H](c3ccccc3)N2)c1 in the same way.
RESULT: 1.53

QUERY: Also Cc1ccc([C@H]2NC(NCc3cccc(F)c3)=N[C@H]2c2ccc(C)cc2)cc1 [hydrochloride] , if possible.
RESULT: 2.13

QUERY: Here is the next compound: Fc1cccc(CSC2=N[C@@H](c3ccccc3)[C@@H](c3ccccc3)N2)c1
RESULT: 2.38

QUERY: What do you have for C[C@@]1(c2ccccc2)N=C(COc2ccccc2)N[C@@H]1c1ccccc1 (relative stereo) [trifluoroacetate] ?
RESULT: 2.61

QUERY: Same question, Cc1ccccc1[C@H]1NC(NCc2ccc(F)cc2)=N[C@H]1c1ccccc1C [hydrochloride] this time
RESULT: 2.14

QUERY: And for Cc1ccccc1[C@H]1NC(NCc2cccc(F)c2)=N[C@H]1c1ccccc1C [hydrochloride] ?
RESULT: 2.08

QUERY: Similarly, C[C@]1(c2ccccc2)N=C(Cc2cccc(Cl)c2)N[C@H]1c1ccccc1 (relative stereo) [trifluoroacetate] ?
RESULT: 1.62

###

Can you tell me log10(IC50) for the items I'm about to list?
Subject Of Test: P2X7 (Homo sapiens)
Test Protocol: YO-PRO-1 dye uptake assay in U373 cells stably expressing P2X7
Type: cell-based
Set-up: The complete open reading frame of human P2X7 was amplified from Incyte clone 148057; expressed in transfected cells
Study Conditions: dye uptake through P2X7, U373 cells, 300 μM BzATP, 5 μM YO-PRO-1, test compounds 30 nM to 3 μM; read-out: IC50
Structures can show the parent of a compound that is named as a salt.
Log10 applied to IC50; unit prior to transform: nM.

QUERY: Requested read-out: log10(IC50). Entry: C[C@@H](CC1=N[C@@H](c2ccccc2)[C@@H](c2ccccc2)N1)c1ccccc1
RESULT: 1.11

QUERY: And the next one, C#CC(CCC)OCC1=N[C@@](C)(c2ccccc2)[C@@H](c2ccccc2)N1 (relative stereo) [hydrochloride] ?
RESULT: 2.87

QUERY: Proceed to Cc1cccc([C@H]2NC(NCc3ccc(F)cc3)=N[C@H]2c2cccc(C)c2)c1 [hydrochloride]
RESULT: 2.03

QUERY: Same thing, different compound: c1ccc([C@H]2NC(COC3CCCCCC3)=N[C@H]2c2ccccc2)cc1 [trifluoroacetate]
RESULT: 2.78

QUERY: How about this compound: Cc1ccc([C@H]2NC(NCc3ccc(F)cc3)=N[C@H]2c2ccc(C)cc2)cc1 [hydrochloride]
RESULT: 2.46

QUERY: Consider next the compound Fc1cccc(CNC2=N[C@@H](c3ccccc3Br)[C@@H](c3ccccc3Br)N2)c1 [hydrochloride] in the same way.
RESULT: 2.89

QUERY: Try the compound Fc1cccc(CNC2=N[C@@H](c3cccc(F)c3)[C@@H](c3cccc(F)c3)N2)c1 [hydrochloride]
RESULT: 1.62

QUERY: Would you mind doing Clc1cccc(CNC2=N[C@@H](c3ccccc3)[C@@H](c3ccccc3)N2)c1 as well?
RESULT: 2.21

QUERY: Subsequent entry: Cc1ccccc1[C@H]1NC(NCc2ccccc2)=N[C@H]1c1ccccc1C [hydrochloride]
RESULT: 2.22

QUERY: Now consider Fc1cccc(OCC2=N[C@@H](c3cccc(F)c3)[C@@H](c3cccc(F)c3)N2)c1 .
RESULT: 2.50

QUERY: Same lookup for c1ccc([C@H]2NC(CCc3ccccn3)=N[C@H]2c2ccccc2)cc1 , please.
RESULT: 2.86

QUERY: Moving on to the next compound: Fc1ccc(CNC2=N[C@@H](c3ccccc3Cl)[C@@H](c3ccccc3Cl)N2)cc1F [hydrochloride]
RESULT: 2.58

QUERY: # iterate: c1ccc(CNC2=N[C@@H](c3ccccc3)[C@@H](c3ccccc3)N2)cc1
RESULT: 2.13

QUERY: Would you kindly repeat that for C[C@@]1(c2ccccc2)N=C(COC2CCCC2)N[C@@H]1c1ccccc1 (relative stereo) [hydrochloride] ?
RESULT: 2.69

QUERY: Record: Fc1ccc(CNC2=N[C@@H](c3ccc(Cl)cc3)[C@@H](c3ccc(Cl)cc3)N2)cc1F [hydrochloride]
RESULT: 2.60

QUERY: What about this compound? Fc1cccc([C@H]2NC(Cc3cccc(Cl)c3)=N[C@H]2c2cccc(F)c2)c1 [trifluoroacetate]
RESULT: 2.52

QUERY: Fc1ccc(CSC2=N[C@@H](c3ccccc3)[C@@H](c3ccccc3)N2)cc1F [hydrochloride] , same question.
RESULT: 2.66

###

Subject Of Test: P2X7 (Homo sapiens, UniProt Q99572)
Sequence (Q99572 1-595): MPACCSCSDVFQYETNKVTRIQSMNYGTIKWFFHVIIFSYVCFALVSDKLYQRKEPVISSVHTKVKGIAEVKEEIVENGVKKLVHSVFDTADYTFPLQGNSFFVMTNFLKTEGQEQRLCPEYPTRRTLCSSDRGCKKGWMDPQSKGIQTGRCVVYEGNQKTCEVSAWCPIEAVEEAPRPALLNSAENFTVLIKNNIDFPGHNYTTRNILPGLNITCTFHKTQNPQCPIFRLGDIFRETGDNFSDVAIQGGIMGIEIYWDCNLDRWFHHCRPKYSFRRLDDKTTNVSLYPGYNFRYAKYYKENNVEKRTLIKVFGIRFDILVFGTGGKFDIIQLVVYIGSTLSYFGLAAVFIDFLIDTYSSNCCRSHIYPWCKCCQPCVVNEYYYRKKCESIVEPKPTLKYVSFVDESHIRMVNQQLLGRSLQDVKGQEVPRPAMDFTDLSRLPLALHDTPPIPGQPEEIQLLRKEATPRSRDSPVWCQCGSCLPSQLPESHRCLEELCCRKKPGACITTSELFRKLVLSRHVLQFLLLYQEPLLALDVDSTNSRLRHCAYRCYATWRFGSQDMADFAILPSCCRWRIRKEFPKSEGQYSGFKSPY
Test Protocol: BzATP-induced IL-1β secretion from human monocytes/macrophages activated by beta amyloid peptide 1-42 (ELISA)
Assay type: cell-based
Parameters: Monocytes were isolated from peripheral blood mononuclear cells (PBMCs); endogenous in cells; host or cells: primary monocytes isolated from peripheral blood mononuclear cells
Study Conditions: BzATP (300 μM)-induced IL-1β secretion, human monocytes primed with beta amyloid 1-42 (5 μM); read-out: IC50
Counter-ions that a name gives are not always drawn.
Parameter: IC50 (nM)
# number only, unit nM dropped from output

QUERY: Give its IC50 value. Item: Fc1ccc(CNC2=NC(c3ccccc3)C(c3ccccc3)N2)cc1 (stereo not drawn) [hydrochloride]
RESULT: 693

QUERY: Now try Fc1ccc(CC2=N[C@@H](c3ccccc3)[C@@H](c3ccccc3)N2)cc1Cl [trifluoroacetate] .
RESULT: 157

QUERY: Please give the result for CC(C)(CC1=NC(c2ccccc2)C(c2ccccc2)N1)c1ccccc1 (stereo not drawn) [trifluoroacetate] too.
RESULT: 178

###

Subject Of Test: UniProt:Q99572
Sequence (Q99572 1-595): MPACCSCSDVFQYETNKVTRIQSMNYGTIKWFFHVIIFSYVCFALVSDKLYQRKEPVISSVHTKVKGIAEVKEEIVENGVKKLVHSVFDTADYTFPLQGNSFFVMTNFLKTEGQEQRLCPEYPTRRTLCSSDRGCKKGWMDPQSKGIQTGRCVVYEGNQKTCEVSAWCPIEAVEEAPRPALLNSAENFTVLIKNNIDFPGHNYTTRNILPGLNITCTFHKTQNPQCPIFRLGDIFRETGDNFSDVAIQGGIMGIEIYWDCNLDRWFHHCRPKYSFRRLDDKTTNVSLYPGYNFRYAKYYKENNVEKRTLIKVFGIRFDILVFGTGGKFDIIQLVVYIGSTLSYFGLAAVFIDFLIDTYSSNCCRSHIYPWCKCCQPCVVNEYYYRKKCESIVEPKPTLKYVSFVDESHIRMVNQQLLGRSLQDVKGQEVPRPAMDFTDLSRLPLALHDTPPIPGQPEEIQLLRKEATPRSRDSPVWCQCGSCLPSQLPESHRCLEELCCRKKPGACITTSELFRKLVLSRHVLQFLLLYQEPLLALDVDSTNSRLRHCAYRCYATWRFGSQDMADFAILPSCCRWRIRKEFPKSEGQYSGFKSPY
Test Protocol: YO-PRO-1 dye uptake assay in U373 cells stably expressing P2X7
Assay type: cell-based
Parameters: The complete open reading frame of human P2X7 was amplified from Incyte clone 148057; expressed in transfected cells
Study Conditions: dye uptake through P2X7, U373 cells, 300 μM BzATP, 5 μM YO-PRO-1, test compounds 30 nM to 3 μM; read-out: IC50
Counter-ions that a name gives are not always drawn.
Parameter: IC50 (nM)
Enter your answer as a number in nM; do not include the unit.

QUERY: Report IC50 for Fc1ccc(CC2=N[C@@H](c3ccccc3)[C@@H](c3ccccc3)N2)c(F)c1 [trifluoroacetate] please.
RESULT: 42

QUERY: Another: c1ccc(SCC2=N[C@@H](c3ccccc3)[C@@H](c3cccnc3)N2)cc1 (relative stereo) [ditrifluoroacetate]
RESULT: 866

QUERY: Same read-out for Fc1cccc([C@H]2NC(CCc3ccccc3)=N[C@H]2c2cccc(F)c2)c1 ?
RESULT: 146

QUERY: Next up: Cc1cccc(CC2=N[C@@H](c3ccccc3)[C@@H](c3ccccc3)N2)c1
RESULT: 376

QUERY: Also need CC(OCC1=N[C@@](C)(c2ccccc2)[C@@H](c2ccccc2)N1)C1CC1 (relative stereo) [trifluoroacetate] , thanks.
RESULT: 397

QUERY: Now consider Fc1cccc([C@H]2NC(NCc3ccc(F)c(F)c3)=N[C@H]2c2cccc(F)c2)c1 [hydrochloride] .
RESULT: 71

QUERY: Likewise for CC(OCC1=N[C@@](C)(c2ccccc2)[C@@H](c2ccccc2)N1)C1CCCC1 (relative stereo) [hydrochloride] ?
RESULT: 160

QUERY: Param item: Fc1ccc(CC2=N[C@@H](c3cccc(F)c3)[C@@H](c3cccc(F)c3)N2)cc1 [trifluoroacetate]
RESULT: 217

QUERY: Proceed to C[C@@]1(c2ccccc2)N=C(COC2CCC2)N[C@@H]1c1ccccc1 (relative stereo) [trifluoroacetate]
RESULT: 722

QUERY: Note, next up: Fc1ccc(CSC2=N[C@@H](c3ccccc3)[C@@H](c3ccccc3)N2)c(Cl)c1 [hydrochloride]
RESULT: 828

QUERY: Try this molecule next: Fc1cc(F)cc(CNC2=N[C@@H](c3ccccc3)[C@@H](c3ccccc3)N2)c1 [hydrochloride]
RESULT: 102

QUERY: Record: Clc1ccc(CNC2=N[C@@H](c3ccccc3)[C@@H](c3ccccc3)N2)cc1Cl
RESULT: 307

QUERY: Cc1ccccc1CCC1=N[C@H](c2ccccc2)[C@H](c2ccccc2)N1 , same question.
RESULT: 42

QUERY: How about Fc1ccc(CNC2=N[C@@H](c3ccccc3)[C@@H](c3ccccc3)N2)c(Cl)c1 ?
RESULT: 247

QUERY: Try the molecule c1ccc(OCC2=N[C@@H](c3ccccc3)[C@@H](c3ccccc3)N2)cc1
RESULT: 612

QUERY: Could you do the same for C[C@@]1(c2ccccc2)N=C(COCC2CC2)N[C@@H]1c1ccccc1 (relative stereo) [trifluoroacetate] , please?
RESULT: 676

QUERY: Also Brc1ccccc1CC1=N[C@@H](c2ccccc2)[C@@H](c2ccccc2)N1 ?
RESULT: 321

QUERY: Likewise for CC(C)(CC1=N[C@@H](c2ccccc2)[C@@H](c2ccccc2)N1)c1ccccc1 ?
RESULT: 10

QUERY: Same thing, different molecule: Fc1ccccc1CC1=N[C@H](c2ccccc2)[C@H](c2ccccc2)N1
RESULT: 577

QUERY: Then Fc1ccccc1CNC1=N[C@@H](c2ccccc2)[C@@H](c2ccccc2)N1 ?
RESULT: 409

QUERY: Would you kindly repeat that for CC(C)(C1=N[C@@H](c2ccccc2)[C@@H](c2ccccc2)N1)c1ccc(Cl)cc1 ?
RESULT: 537

QUERY: Same read-out for Cc1ccccc1CSC1=N[C@@H](c2ccccc2)[C@@H](c2ccccc2)N1 ?
RESULT: 449

QUERY: Same again, this time with Cc1cccc(CCC2=N[C@@H](c3cccc(F)c3)[C@@H](c3cccc(F)c3)N2)c1 [trifluoroacetate]
RESULT: 385

QUERY: Next entry: c1ccc([C@H]2NC(NCC3CCCCC3)=N[C@H]2c2ccccc2)cc1 [hydrochloride]
RESULT: 124

QUERY: Same for Fc1ccc(F)c(CC2=N[C@@H](c3ccccc3)[C@@H](c3ccccc3)N2)c1 [trifluoroacetate]
RESULT: 142

QUERY: Now try Ic1ccccc1CSC1=N[C@@H](c2ccccc2)[C@@H](c2ccccc2)N1 .
RESULT: 647

QUERY: Record: Cc1ccccc1[C@H]1NC(NCc2ccc(F)c(F)c2)=N[C@H]1c1ccccc1C [hydrochloride]
RESULT: 77

QUERY: Likewise for Fc1ccc(CNC2=N[C@@H](c3ccccc3)[C@@H](c3ccccc3)N2)cc1F ?
RESULT: 65

QUERY: Similarly, Cc1cccc([C@H]2NC(NCc3ccccc3)=N[C@H]2c2cccc(C)c2)c1 [hydrochloride] ?
RESULT: 157

QUERY: Follow-up item: Cc1cccc(CNC2=N[C@@H](c3ccccc3F)[C@@H](c3ccccc3F)N2)c1 [hydrochloride]
RESULT: 379

QUERY: Quick one: c1ccc(CCC2=N[C@@H](c3ccccc3)[C@@H](c3cccnc3)N2)cc1 (relative stereo) [ditrifluoroacetate]
RESULT: 251

QUERY: Quick one: Fc1cccc([C@H]2NC(CCc3cccs3)=N[C@H]2c2cccc(F)c2)c1 [trifluoroacetate]
RESULT: 592

QUERY: Would you mind doing Fc1ccccc1CCNC1=N[C@@H](c2ccccc2)[C@@H](c2ccccc2)N1 [hydrochloride] as well?
RESULT: 87

QUERY: Another molecule: c1ccc(CCOCC2=N[C@@H](c3ccccc3)[C@@H](c3ccccc3)N2)cc1
RESULT: 768
